Test system: MALME-3M melanoma
Test: NCI-60 one-dose screen, 48 h
Settings: 10 µM unless noted
About 83,000 compounds went through this panel and 20% of them were active in at least one assay; those are over-represented in the sample as a whole. The source made the active and inactive calls. How the source made its calls: active means growth percent below 10; inactive means the rest.
Pick from y (active), n (inactive) when you respond.

CCOC(=O)c1c(-c2ccc(O)cc2)c(C#N)c2c(C#N)c(N)nn2c1N    n
CCOC(=O)c1ccc(Nc2ncnc3ccc(NC(=O)c4ccccc4)cc23)cc1    n
COc1cc2nc3c(=O)n(-c4ccc(C#N)cc4)cnn3c(=O)c2cc1OC    n

Query string: How was C=CCn1c(SCC(=O)Nc2ccc(C(=O)/C=C/c3cc(OC)c(OC)c(OC)c3)cc2)nnc1-c1ccccc1 classified in this test?
Result string: n

Query string: How was O=C(/C(=C\c1c(-c2ccccc2)[nH]c2ccccc12)S(=O)(=O)c1ccccc1)c1ccccc1 classified in this test?
Result string: n

Query string: How was CCC1S/C(=N\N=C(/C)c2ccc[nH]2)N(c2ccccc2)C1=O (stereo not drawn) classified in this test?
Result string: n

Query string: How was CC1(C)[C@@H](O)CC[C@]2(C)[C@H]3CC[C@@H]4[C@H]5[C@H](c6cn(-c7ccccc7)nn6)CC[C@]5(CO)CC[C@@]4(C)[C@]3(C)CC[C@@H]12 classified in this test?
Result string: n

Query string: How was COc1cc(C(=O)N2CCN(c3ccccc3OC)CC2)c(NC(=O)c2cnccn2)cc1OCc1ccccc1 classified in this test?
Result string: n

Query string: How was CCc1n(Cc2ccc3ccccc3c2)c2ccccc2[n+]1Cc1ccc2ccccc2c1 classified in this test?
Result string: n

Query string: How was O=C1C(=O)c2c(nc3ccc(Br)cn23)-c2ccccc21 classified in this test?
Result string: y

Query string: How was CNS(=O)(=O)c1cccc(-c2ccc3c4c(n(C)c(=O)c3c2)-c2ccccc2C4=O)c1 classified in this test?
Result string: n
